Collected Degradation rate constant values appear next to each entry.
Organism: Mus musculus
assay explanation: Degradation rate constant in biological media of mouse liver homogenates.
Type: ADME, organism-based

smi	reading unit	Degradation rate constant
O=C1CCCN1	h⁻¹	0.034
CCCCCCCCCCCC(=O)N1CCCC1=O	h⁻¹	0.789
CC(=O)N1CCCC1=O	h⁻¹	0.221
CCCC(=O)N1CCCC1=O	h⁻¹	1.35
CCCCCCC(=O)N1CCCC1=O	h⁻¹	11.9
CCCCCCCCCC(=O)N1CCCC1=O	h⁻¹	2.53

* * *

Species on record: Rattus norvegicus
assay explanation: Degradation rate constant in biological media of rat plasma homogenates.
Format: ADME, organism-based

smi	reading unit	Degradation rate constant
CCCCCCC(=O)N1CCCC1=O	h⁻¹	0.056
CCCC(=O)N1CCCC1=O	h⁻¹	0.054
CCCCCCCCCCCC(=O)N1CCCC1=O	h⁻¹	0.016
O=C1CCCN1	h⁻¹	0.018
CC(=O)N1CCCC1=O	h⁻¹	0.028
CCCCCCCCCC(=O)N1CCCC1=O	h⁻¹	0.025

* * *

Organism: Mus musculus
assay explanation: Degradation rate constant in biological media of mouse brain homogenates.
Format: ADME, organism-based
Tag: Satisfied if measured Degradation rate constant is not below 0.09 h⁻¹, Not satisfied if it is.

compound	class label
CCCCCCCCCCCC(=O)N1CCCC1=O	Satisfied
CC(=O)N1CCCC1=O	Not satisfied
CCCCCCC(=O)N1CCCC1=O	Not satisfied
O=C1CCCN1 [2-PYRROLIDONE]	Not satisfied
CCCCCCCCCC(=O)N1CCCC1=O	Satisfied
CCCC(=O)N1CCCC1=O	Not satisfied

* * *

Test system: Mus musculus
assay explanation: Onset for sleeping time after administration in mice induced by sodium pentobarbital
Format: functional
Collected Onset for sleep values appear next to each entry.
observation type: Onset for sleep (min)

smi	observation type	meas value
CCCC(=O)N1CCCC1=O	Onset for sleep	7.2
CCCCCCCCCCCC(=O)N1CCCC1=O	Onset for sleep	9.6
CC(=O)N1CCCC1=O	Onset for sleep	6.9
NCCCC(=O)O	Onset for sleep	10.1
CCCCCCC(=O)N1CCCC1=O	Onset for sleep	7.9
O=C1CCCN1	Onset for sleep	10.2

* * *

assay explanation: Apparent partition coefficient between 1-octanol and pH 5.0 phosphate buffer (0.1 M) at 37 degrees Centigrade.
Format: physicochemical
study conditions: 1-octanol/phosphate buffer, read-out: LogD5.0
Field 'label' (enum: rule met / rule not met). Set to rule met when logD is strictly under -0.05; else rule not met.

smi	class label
NCCCC(=O)O	rule met
CCCCCCCCCCCC(=O)N1CCCC1=O	rule not met
CCCCCCCCCC(=O)N1CCCC1=O	rule not met
CCCCCCC(=O)N1CCCC1=O	rule not met
CCCC(=O)N1CCCC1=O	rule not met

* * *

Species on record: Mus musculus
assay explanation: Latency to the protection against lethality by picrotoxin was measured and evaluated as a percent of the control in mice.
Format: functional
Parameters: concentration or dose not given beside the values
observation type: Survival time (%)

compound	meas value
NCCCC(=O)O	112
CCCCCCCCCC(=O)N1CCCC1=O	364
CCC(=O)N1CCCC1=O	112
CC(C)(C)C(=O)N1CCCC1=O	120
CCCCCCC(=O)N1CCCC1=O	116
CC(=O)N1CCCC1=O	144
CCCCCCCCCCCC(=O)N1CCCC1=O	494
O=C1CCCN1C(=O)c1ccccc1	93
CCC1(C)CC(=O)NC1=O (stereo unspecified) [ETHOSUXIMIDE]	577
O=C1CCCN1C(=O)Cc1ccccc1	281
CCCC(=O)N1CCCC1=O	142
CCCCCCCCCCCC(=O)NCCCC(=O)O	388
CCCCC(=O)N1CCCC1=O	107
O=C1CCCN1	102
O=C(O)CCC(=O)N1CCCC1=O	93
CCCC(CCC)C(=O)O	472
